Assay: fluorescence retest of MPTP screen hits in isolated mitochondria, single concentration (AID 624504);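 further: 0% = DMSO vehicle and 100% = positive control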
Condition label: membrane potential, Rhodamine 123 fluorescence, at 10 µM, active compounds read high
Hit rate of the full screen: of about 5,000 compounds, about 3,900 (78%) were called active. The set was probably picked from earlier hits. The list is a sample of the results.
Give fulfilled when the value for inhibition is at least 50%. Give not fulfilled when it is less.

Compound | Group
COc1ccc(-c2nc3cc(C)ccn3c2NC2CCCCC2)cc1SC1CCCCC1 | fulfilled
COc1ccc2c(c1)c(=Cc1ccc(N(C)C)cc1)c1cc(-c3ccccc3)[n+](C)n12 | fulfilled
Cc1nc(N2CCOCC2)c2c(C)c(C(=O)Nc3ccc(C(F)(F)F)cc3)sc2n1 | fulfilled
CCCCCCc1cc2cc(-c3nnc(-c4ccccc4)o3)c(=O)oc2cc1O | not fulfilled
FC(F)Oc1ccccc1NC(=S)Nc1cccc(Cl)c1Cl | not fulfilled
CCN1CCC(O)(/C=C/c2ccc(C)cc2)C(C(=O)/C=C/c2ccc(C)cc2)C1 (centres undefined) | not fulfilled
Cc1nc2c(OCc3ccc(Cl)cc3Cl)cccn2c1N(C)CC1CC1 | fulfilled
O=C(NCCCN1CCN(c2ccc(F)cc2)CC1)Nc1ccc([N+](=O)[O-])cc1 | fulfilled
CC(C)c1ccccc1OCC(O)CN(CC(O)COc1cccc2ccccc12)C(C)C (centres undefined) | not fulfilled
Cc1ccc(-c2noc(CCC(=O)Nc3ccccc3N3CCN(C)CC3)n2)cc1 | not fulfilled
CN(C)Cc1ccccc1C1(O)c2ccccc2CSc2ccccc21 (centres undefined) | not fulfilled
NC[C@H](Cc1ccccc1)NCCc1cc(C(F)(F)F)cc(C(F)(F)F)c1 | not fulfilled
Cc1oc2cc([N+](=O)[O-])c(O)c([N+](=O)[O-])c2c1C(=O)c1ccc(Br)cc1 | fulfilled
Cc1nn(Cc2ccccc2)c2c1C(c1ccccc1)C(C#N)=C(N)O2 (centres undefined) | not fulfilled
Cc1cccc(OCCNC(=O)CSc2ccc(C(F)(F)F)cc2[N+](=O)[O-])c1 | fulfilled
CCOC(=O)N1CCN(C(=O)C2CCN(c3ncnc4c3sc3cccc(F)c34)CC2)CC1 | fulfilled
Cc1cc(OCCCC(=O)NCCN2C(=O)S/C(=C\c3cccnc3)C2=O)ccc1Cl | fulfilled
COc1ccc(S(=O)(=O)Nc2ccc3oc(C)c(C(C)=O)c3c2)cc1 | fulfilled
Brc1ccc(CSc2ccc(-c3ccco3)nn2)cc1 | not fulfilled
CC(C)N1C(=S)SC(C)(C)C1n1oc(=O)n(-c2ccc(Cl)c(Cl)c2)c1=O (centres undefined) | fulfilled
C=CCC1(CC=C)CCCN1C(=O)c1cc(COc2ccc(-n3cncn3)cc2)on1 | fulfilled
Cc1cccc(-c2nc3ccc(C(=O)NCCN4CCN(C)CC4)cc3nc2-c2cccc(C)c2)c1 | not fulfilled
COc1ccc(NS(=O)(=O)c2ccc(Oc3c(C#N)cccc3C#N)cc2)cc1 | fulfilled
CN1CCN(CCNC(=O)Nc2ccc([N+](=O)[O-])cc2)CC1 | fulfilled
O=C(Nc1ccccc1)Nc1nnc(COc2ccccc2F)s1 | fulfilled
CCCc1[nH]nc2c1C(c1c(C)nn(-c3ccccc3)c1Cl)C(C#N)=C(N)O2 (centres undefined) | not fulfilled
Cc1cc(NC(=O)Nc2ccc(Cl)cc2)n(-c2ccccc2)n1 | fulfilled
N#Cc1c(-c2cccs2)nc(SCC(=O)c2ccc(Br)cc2)[nH]c1=O | fulfilled
Cc1nc2c(OCc3cccc(Cl)c3)cccn2c1N(C)CC1CC1 | fulfilled
CCCc1cc(=S)n2c([nH]c3ccccc32)c1C#N | fulfilled
Cc1ccc2nnn(Cc3cccc(C(C)(C)C)c3O)c2c1 | fulfilled
Cc1ccc(NC(=O)CN(C)CC(=O)Nc2cccc(F)c2)cc1[N+](=O)[O-] | fulfilled
O=C(Nc1nnc(SCc2ccc(Cl)cc2Cl)s1)C1COc2ccccc2O1 (centres undefined) | fulfilled

###

Assay: fluorescence retest of MPTP screen hits in isolated mitochondria, single concentration (AID 624504);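 further: 0% = DMSO vehicle and 100% = positive control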
Condition label: membrane potential, Rhodamine 123 fluorescence, at 10 µM, active compounds read high
The campaign covered roughly 5,000 compounds. About 3,900 (78%) were called active. The set was probably picked from earlier hits. Not all results are given here.
// reported inhibition per item
Measured quantity: inhibition

Compound | Measured quantity | Value observed
COc1ccc2oc(-c3cccc(NC(=O)CSc4ccc(Cl)cc4)c3)nc2c1 | inhibition | 70.8% (active)
CCOC(=O)c1c(NC(=O)CSc2cn(CC)c3ccccc23)sc2c1CCC2 | inhibition | -4.21% (inactive)
Cn1nccc1NC(=O)Nc1ccc(OC(F)(F)F)cc1 | inhibition | 73.2% (active)
O=C(Cc1cccc2ccccc12)NNC(=O)Nc1ccc(Cl)cc1 | inhibition | 85.8% (active)
CCOC(=O)c1cc2cc(-c3c(C(=O)OCC)oc4cc(O)cc(O)c4c3=O)ccc2o1 | inhibition | 47.3% (active)
CS(=O)(=O)N(CC(=O)Nc1ccc(Cl)c(Cl)c1)C1CCCCC1 | inhibition | 82.4% (active)
CCc1cc2c(NC3CCCC3)ncnc2s1 | inhibition | 59.8% (active)
Cc1ccc(NC(=S)NC(NC(=O)Cc2cccc3ccccc23)C(Cl)(Cl)Cl)cc1 (stereo unspecified) | inhibition | 70.9% (active)
O=C(NNc1c2ccccc2nc2ccccc12)c1cc2ccccc2cc1O | inhibition | 31.4% (active)
COc1ccc(Cn2c(=O)sc3ccccc32)cc1OC | inhibition | 38.6% (active)
N#CCCN(C(=S)Nc1ccc(Cl)c(Cl)c1)C1CCCCC1 | inhibition | 91.7% (active)

###

Assay: fluorescence retest of MPTP screen hits in isolated mitochondria, single concentration (AID 624504);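 further: 0% = DMSO vehicle and 100% = positive control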
Condition label: membrane potential, Rhodamine 123 fluorescence, at 10 µM, active compounds read high
The whole screen tested about 5,000 compounds, of which about 3,900 (78%) were called active. So high a share suggests a set chosen from earlier hits. Only a sample is shown.
Use Condition met when the recorded inhibition is no lower than 70%; use Condition not met when it is lower.

Compound | Group
Oc1c(Cl)cc(Cl)c(Cl)c1Cc1c(O)c(Cl)cc(Cl)c1Cl | Condition not met
CCc1ccc(Nc2n[n+](-c3ccccc3)c(-c3cccc(Cl)c3Cl)s2)cc1 | Condition met
Cc1csc(NC(=S)Nc2cccc(Cl)c2)n1 | Condition met
CCCOc1ccc(Cc2c(Cl)nc(SC)nc2NC)cc1 | Condition met
CCCc1nc2scc(-c3ccc(C)cc3)c2c(=O)n1N | Condition not met
CCNCCC(=O)N1c2ccccc2Sc2ccc(NC(=O)OCC)cc21 | Condition not met
Cc1c(C(=O)OC(C)C)sc(NC(=O)c2cccnc2)c1C#N | Condition met
Fc1ccccc1CNC(=S)Nc1ccc(Cl)cc1 | Condition met
CSCCC(NC(=O)c1cc([N+](=O)[O-])cc([N+](=O)[O-])c1)c1nc2ccccc2[nH]1 (stereo unspecified) | Condition met
CCCc1ccc(-c2c(C)sc(NC(=O)c3ccnn3C)c2C#N)cc1 | Condition met
O=C(Nc1cccc(-c2cccc(Cl)c2)c1)C1CCN(C2CCC2)CC1 | Condition not met

###

Below, each entry is listed alongside its reported inhibition.
Assay: fluorescence retest of MPTP screen hits in isolated mitochondria, single concentration (AID 624504);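 further: 0% = DMSO vehicle and 100% = positive control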
Condition label: membrane potential, Rhodamine 123 fluorescence, at 10 µM, active compounds read high
About 3,900 (78%) of roughly 5,000 compounds were called active. The set was probably picked from earlier hits. Not all results are given here.

Compound | inhibition, %
Cc1ccc(Sc2ccc(NC(=O)c3ccc(F)cc3)cc2C#N)cc1 | 99.4
O=C(CSc1nc2ccc([N+](=O)[O-])cc2[nH]1)c1ccc(Cl)cc1 | 76.5
Cc1nn(C)cc1CNC(=O)Nc1ccc(Cl)cc1 | 96.6
COc1ccc(Sc2ccc(NC(=O)c3cccc(Cl)c3)cc2C#N)cc1 | 77.8
O=C1c2ccccc2C2=Nc3ccccc3SC(c3ccccc3F)C12 (stereo unspecified) | 59
O=C(Nc1cccc(C(F)(F)F)c1)c1ccc(N2CCNCC2)c([N+](=O)[O-])c1 | -27

###

Assay: fluorescence retest of MPTP screen hits in isolated mitochondria, single concentration (AID 624504);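 further: 0% = DMSO vehicle and 100% = positive control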
Condition label: membrane potential, Rhodamine 123 fluorescence, at 10 µM
About 3,900 (78%) of roughly 5,000 compounds were called active. Rule as the data show it: active = inhibition above about 22%; inactive = the rest. So high a share suggests a set chosen from earlier hits. Only a sample is shown.
Outcomes: T = active, F = inactive

Compound | Group
COc1ccc(C(=O)NC2CCCc3c2cnn3-c2cccc(C)c2C)c(OC)n1 (stereo not given) | T
Cc1nc2ccccc2cc1OCc1ccc(F)cc1 | T
Cc1cc(C)cc(NS(=O)(=O)c2ccc(Oc3ncc(C(F)(F)F)cc3Cl)cc2)c1 | T
CCn1c(CNC(=O)c2cc(OC)c(OC)c(OC)c2)cc2cc(C)ccc21 | T
O=C(Nc1ccc(OC(F)(F)F)cc1)c1ccc2c(c1)no[n+]2[O-] | T
S=C(NCc1ccc(Cl)cc1)NC1CCCCC1 | T
O=C(c1cc(-c2cccc(O)c2)on1)N1CCc2ccccc2C1 | T
Cc1ccc(S(=O)(=O)Nc2ccc3ncccc3c2)cc1 | T
COC(=O)c1ccc(NC(=O)c2ccccc2NS(=O)(=O)c2ccccc2)cc1 | T
FC(F)Oc1ccc(NC(=S)NCc2ccco2)cc1Cl | T
O=C(CCN1C(=O)/C(=C/c2cccs2)SC1=S)NNC(=O)c1cccc(O)c1 | T
CSc1nsc(NC(=O)Nc2ccccc2)n1 | T
N=c1n(Cc2ccc(Cl)cc2)c2ccccc2n1CC(O)c1ccco1 (stereo not given) | F
S=C(Nc1ccccc1)Nc1ccc2ccccc2c1 | T
O=C(COC(=O)c1ccccc1NC(=O)c1ccco1)Nc1ccc2c(c1)OC(F)(F)O2 | F
S=C(NCc1ccc(Cl)cc1)NC12CC3CC(CC(C3)C1)C2 | T
CCC(C)N1C(=O)S/C(=C/c2ccc(Sc3nc4ccccc4[nH]3)o2)C1=O (stereo not given) | T
O=C(Nc1ccccc1)Nc1nc2ccccc2s1 | T
O=C(Cc1ccc(-n2c(=O)[nH]c3ccccc3c2=O)cc1)N1CCN(c2cccc(Cl)c2)CC1 | T
COc1cccc(CNS(=O)(=O)c2ccc3c(c2)CC(C)N3C(=O)C2CCC2)c1 (stereo not given) | T
c1ccc2c(CSCc3nc4ccccc4[nH]3)cccc2c1 | T
O=C(Nc1ccc(Cl)cc1)Nc1nnc(/C=C/c2ccccc2)s1 | T
O=C(CSCc1ccc(Br)cc1)Nc1ccc(S(=O)(=O)N2CCCCCC2)cc1 | T
O=C(Nc1ccc(C2CC2(Cl)Cl)cc1)c1cccc([N+](=O)[O-])c1 (stereo not given) | T
Cc1[nH]n(-c2cccc(Cl)c2)c(=O)c1-c1ccc(Cl)cc1 | T
C=CCSc1nsc(NC(=O)Nc2cccc(C(C)=O)c2)n1 | T
CCCCCc1c(Cc2ccccc2)ncn1CCc1ccccc1OC | T
CN(c1cccc(NC(=O)Nc2ccc(Cl)cc2)c1)S(C)(=O)=O | T
Cn1nccc1C(=O)NC1CCCc2c1cnn2-c1ccc(F)cc1F (stereo not given) | T
S=C(NCCc1ccccc1)NCc1ccccc1Cl | T
Cn1nccc1C(=O)NC1CCCc2c1cnn2-c1ccccc1F (stereo not given) | T
O=C(Cc1ccc(Cl)c(Cl)c1)Nc1ccc(SC(F)F)cc1 | T
CN(c1ccccc1)S(=O)(=O)c1cccc(NC(=O)Cc2ccc(Cl)cc2)c1 | T
Clc1ccc(-c2cc(C3CCNCC3)[nH]n2)c(Cl)c1 | F
O=C(Nc1nc(-c2ccc3c(c2)OCO3)cs1)c1ccncc1 | T
CC(C)OCCCNc1ncnc2c1[nH]c1ccc(F)cc12 | T
Cc1cc2ncn(CCCCOc3ccccc3)c2cc1C | T
NC(N)=N/N=C/c1ccc(Cl)c([N+](=O)[O-])c1 | F
Cc1ccc(Nc2c3c(nc4ccccc24)CCC3)cc1 | T
C=C1c2c(Cl)ccc(O)c2C(O)=C2C(=O)[C@]3(O)C(O)=C(C(N)=O)C(=O)[C@@H](N(C)C)[C@@H]3[C@@H](O)C12 (stereo not given in full) | F
O=C(NC1CCN(Cc2ccccc2)CC1)c1cc(Br)c(Br)[nH]1 | F
COc1ccc(Br)cc1C(=O)NC(=S)Nc1cc(-c2nc3ccccc3[nH]2)ccc1C | T
CCCCC(=O)NNC(=S)NC(=O)C(c1ccccc1)c1ccccc1 | F
CC(C)CC(=O)N/C(N)=N/c1nc2ccccc2s1 | T
Cc1ccc2c(c1)C1CN(C)CCC1N2S(=O)(=O)c1ccc(Oc2ccc([N+](=O)[O-])cc2)cc1 (stereo not given) | F

All figures here come from PubChem BioAssay AID624504.
